Competition at 100 nM (%) values, listed per item
- measured_target: PD brain-derived a-syn aggregates (Homo sapiens, UniProt P37840)
- Construct: from tissue; host or cells: human PD donor brain, sarkosyl-insoluble 100,000 x g pellet
- procedure_text: Micro-radiobinding competition assay against Example-1 [^3H-1] (Table 8)
- Format: binding
- test_conditions: 100 nM non-radiolabelled example compound vs Example-1 [^3H-1] ligand; human PD brain-derived a-syn aggregates
measure: Competition at 100 nM (%)

                              smiles_record  unit_of_measurement  measured
0  O=C1c2cn(-c3ccc(N4CC[C@H](F)C4)nc3)nc2CN1c1cccnn1                    %        51
1  COc1cc(N2Cc3nn(-c4ccc(N5CC[C@@H](F)C5)nc4)cc3C2=O)ccn1                    %        92
2  COc1ccc(N2Cc3nn(-c4ccc(N5CC[C@@H](F)C5)nc4)cc3C2=O)cn1                    %        67
3  O=C1c2cn(-c3ccc(N4CC[C@H](F)C4)nc3)nc2CN1c1cccc(O)c1                    %        77
4  O=C1c2cn(-c3ccc(N4CCCC4)nc3)nc2CN1c1cncc(F)c1                    %        56
5  O=C1c2cn(-c3ccc(C4CCCC4)nc3)nc2CN1c1cccc(F)n1                    %        81
6  O=C1c2cn(-c3ccc(N4CC[C@@H](F)C4)nc3)nc2CN1c1ccccc1F                    %        16
7  O=C1c2cn(-c3ccc(N4CCCC4)nc3)nc2CN1c1cnccc1F                    %        39
8  Cc1c2c(nn1-c1ccc(N3CC[C@H](F)C3)nc1)CN(c1ccncc1)C2=O                    %        12
